- Species on record: Rattus norvegicus
- assay_overview: DrugMatrix - Regimen: Daily Repeat
- Format: toxicity, organism-based, Sprague-Dawley
- Set-up: regimen Daily Repeat, gender Male, age 6-8 weeks
- recorded_conditions: in vivo, po, 0 mg/kg, 120 h, tissue Blood, route oral GAVAGE, dose level Control, time 5 day, […]
Recorded MONOCYTE for the following molecules

Use the examples below as a reference point.
molecule="COc1ccc2c(c1)c(CC(=O)OCC(=O)O)c(C)n2C(=O)c1ccc(Cl)cc1 [ACEMETACIN]" reading=1.5%
molecule="c1ccc2[nH]c(-c3cscn3)nc2c1 [THIABENDAZOLE]" reading=0.33%
molecule="CSc1ccc2c(c1)N(CCC1CCCCN1C)c1ccccc1S2 (stereo unspecified) [THIORIDAZINE]" reading=1.17%
molecule="CC(C)n1c(/C=C/C(O)CC(O)CC(=O)O)c(-c2ccc(F)cc2)c2ccccc21 (stereo unspecified) [FLUVASTATIN]" reading=0.67%
molecule="C=CCN [ALLYLAMINE]" reading=2.1%

Switching to the query record.
The molecule CC1=C(/C=C/C(C)=C/C=C/C(C)=C\C(=O)O)C(C)(C)CCC1 [ISOTRETINOIN] showed MONOCYTE equal to 0.5%

====

- Species: Rattus norvegicus
- assay_overview: DrugMatrix - Regimen: Daily Repeat
- Type: toxicity, organism-based, Sprague-Dawley
- Set-up: regimen Daily Repeat, gender Male, age 6-8 weeks
- recorded_conditions: in vivo, ip, 0 mg/kg, 120 h, tissue Blood, route intraperitoneal, dose level Control, time 5 day, vehicle 100 % SALINE
reported_endpoint: ABSOLUTE EOSINOPHIL (cells/µL)
State just the number; it will be interpreted in cells/µL.

Please review the following examples before continuing.
substance="GOLD SODIUM THIOMALATE" reported_endpoint="ABSOLUTE EOSINOPHIL" reading=110
substance=CISPLATIN reported_endpoint="ABSOLUTE EOSINOPHIL" reading=110

Below: the item to evaluate.
The recorded ABSOLUTE EOSINOPHIL for entry CARBOPLATIN equals 110

====

- Species on record: Rattus norvegicus
- assay_overview: DrugMatrix - Regimen: Daily Repeat
- Format: toxicity, organism-based, Sprague-Dawley
- Parameters: regimen Daily Repeat, gender Male, age 6-8 weeks
- recorded_conditions: in vivo, po, 10 mg/kg, 72 h, tissue Plasma, route oral GAVAGE, dose level Low, time 3 day, vehicle .5 % CMC
Recorded CHLORIDE by entry
Field: numeric (MEQ/L). Do not append units.

The recorded CHLORIDE for entry COc1c(C)c2c(c(O)c1C/C=C(\C)CCC(=O)OCCN1CCOCC1)C(=O)OC2 [MYCOPHENOLATE MOFETIL] equals 102.67

====

# CHLORIDE per entry
- Organism: Rattus norvegicus
- assay_overview: DrugMatrix - Regimen: Daily Repeat
- Format: toxicity, organism-based, Sprague-Dawley
- Parameters: regimen Daily Repeat, gender Male, age 6-8 weeks
- recorded_conditions: in vivo, po, 0 mg/kg, 120 h, tissue Plasma, route oral GAVAGE, dose level Control, time 5 day, vehicle 100 % WATER
Field: numeric (MEQ/L). Do not append units.

compound="CC1COc2c(N3CCN(C)CC3)c(F)cc3c(=O)c(C(=O)O)cn1c23 (stereo not given) [OFLOXACIN]" reported_endpoint=CHLORIDE reading=101.83
compound="NC(=O)c1ncn([C@@H]2O[C@H](CO)[C@@H](O)[C@H]2O)n1 [RIBAVIRIN]" reported_endpoint=CHLORIDE reading=100.33
compound="NCC1(CC(=O)O)CCCCC1 [GABAPENTIN]" reported_endpoint=CHLORIDE reading=100.67
compound="COc1ccc(C(CN(C)C)C2(O)CCCCC2)cc1 (stereo not given) [VENLAFAXINE]" reported_endpoint=CHLORIDE reading=104.17
compound="COc1cc2c(N3CCN(C(=O)Nc4ccc(OC(C)C)cc4)CC3)ncnc2cc1OCCCN1CCCCC1 [TANDUTINIB]" reported_endpoint=CHLORIDE reading=98.17

Now look at this entry.
// field: CHLORIDE; key: Clc1ccc(C(c2ccccc2Cl)C(Cl)Cl)cc1 (stereo not given) [MITOTANE] ; value = 99.67

====

- Organism: Rattus norvegicus
- assay_overview: DrugMatrix - Regimen: Daily Repeat
- Assay type: toxicity, organism-based, Sprague-Dawley
- Design: regimen Daily Repeat, gender Male, age 6-8 weeks
- recorded_conditions: in vivo, po, 0 mg/kg, 72 h, tissue Plasma, route oral GAVAGE, dose level Control, time 3 day, vehicle .5 % CMC
TOTAL BILIRUBIN strictly less than 0.2 mg/dL = 1.0. Otherwise 0.0.

// below: answered molecules
molecule="CCc1ccc(C(=O)C(C)CN2CCCCC2)cc1 (stereo not drawn) [EPERISONE]" label_value=0.0
molecule="O=c1[nH]cc(F)c(=O)[nH]1 [FLUOROURACIL]" label_value=1.0

Criterion: TOTAL BILIRUBIN strictly below 0.2 mg/dL. Is it met by CCC[C@@H]1C[C@@H](C(=O)N[C@@H]([C@H]2O[C@H](SC)[C@H](O)[C@@H](O)[C@H]2O)[C@@H](C)O)N(C)C1 [LINCOMYCIN] ?
1.0

Consider the molecule CC(/C=C1\SC(=S)N(CC(=O)O)C1=O)=C\c1ccccc1 . Is its TOTAL BILIRUBIN strictly less than 0.2 mg/dL?
1.0

====

- Species: Rattus norvegicus
- assay_overview: DrugMatrix - Regimen: Daily Repeat
- Format: toxicity, organism-based, Sprague-Dawley
- Design: regimen Daily Repeat, gender Male, age 6-8 weeks
- recorded_conditions: in vivo, po, 0 mg/kg, 120 h, tissue Plasma, route oral GAVAGE, dose level Control, time 5 day, vehicle 100 % WATER
Some compounds, each annotated with its measured CHOLESTEROL.

The cases that follow already have their CHOLESTEROL on record.
compound="CN1CCC[C@H]1c1cccnc1 [NICOTINE]" reported_endpoint=CHOLESTEROL reading="67.83 mg/dL"
compound="COc1ccc(C(CN(C)C)C2(O)CCCCC2)cc1 (stereo not given) [VENLAFAXINE]" reported_endpoint=CHOLESTEROL reading="77 mg/dL"
compound="CNCCC=C1c2ccccc2CCc2ccccc21 [NORTRIPTYLINE]" reported_endpoint=CHOLESTEROL reading="71.33 mg/dL"

Recorded result, CC(CCc1ccccc1)NCC(O)c1ccc(O)c(C(N)=O)c1 (stereo not given) [LABETALOL] , CHOLESTEROL: 78.5 mg/dL

response.value for NCC1(CC(=O)O)CCCCC1 [GABAPENTIN] (field: CHOLESTEROL) = 67.67 mg/dL

Please fill in: CHOLESTEROL reported for COc1cccc(C2(O)CCCCC2CN(C)C)c1 (stereo not given) [TRAMADOL] = 71.5 mg/dL

CHOLESTEROL measured on CC1COc2c(N3CCN(C)CC3)c(F)cc3c(=O)c(C(=O)O)cn1c23 (stereo not given) [OFLOXACIN] = 67.83 mg/dL

Form: compound = C[C@]12Cc3c[nH]nc3C[C@@H]1CC[C@@H]1[C@@H]2CC[C@@]2(C)[C@H]1CC[C@]2(C)O [STANOZOLOL] ; CHOLESTEROL = 71.5 mg/dL

For COc1cc2c(N3CCN(C(=O)Nc4ccc(OC(C)C)cc4)CC3)ncnc2cc1OCCCN1CCCCC1 [TANDUTINIB] the compound record lists CHOLESTEROL as 66.83 mg/dL

# CHOLESTEROL of Cc1cc(NS(=O)(=O)c2ccc(N)cc2)no1 [SULFAMETHOXAZOLE] = 77 mg/dL

====

- Organism: Rattus norvegicus
- assay_overview: DrugMatrix - Regimen: Daily Repeat
- Type: toxicity, organism-based, Sprague-Dawley
- Parameters: regimen Daily Repeat, gender Male, age 6-8 weeks
- recorded_conditions: in vivo, po, 0 mg/kg, 120 h, tissue Plasma, route oral GAVAGE, dose level Control, time 5 day, vehicle .5 % CMC
Each entry below lists one item and its recorded CREATINE PHOSPHOKINASE value.
Write the number in u/L without appending the unit.

Known CREATINE PHOSPHOKINASE results, listed for orientation:
molecule=NCC(=O)O reading=130
molecule=Brc1ccccc1 reading=171.83
molecule=CC[C@H]1OC(=O)[C@H](C)[C@@H](O[C@H]2C[C@@](C)(OC)[C@@H](O)[C@H](C)O2)[C@H](C)[C@@H](O[C@@H]2O[C@H](C)C[C@H](N(C)C)[C@H]2O)[C@](C)(O)C[C@@H](C)/C(=N\OCOCCOC)[C@H](C)[C@@H](O)[C@]1(C)O reading=148.33

Next item in the queue.
Reported CREATINE PHOSPHOKINASE for CCOC(=O)OC(C)OC1=C(C(=O)Nc2ccccn2)N(C)S(=O)(=O)c2ccccc21 (centres undefined) was 171.83
